assay: Inhibition of Salmonella enterica Threonyl-tRNA synthetase assessed as reduction in aminoacylation activity using L-threonine as substrate incubated for 3 hrs by Kinase-glo luminescence assay
Catalogue of pIC50 readings, one per entry.
Worth noting: pIC50 values are minus log10 of concentrations stated in mol/L.

[
  {
    "SMILES RECORD": "C[C@@H](O)[C@H](NCC#N)C(=O)NC/C=C/Cn1cnc2cc(Cl)c(Cl)cc2c1=O",
    "pIC50": 5.02
  },
  {
    "SMILES RECORD": "C=CCN[C@H](C(=O)NC/C=C/Cn1cnc2cc(Cl)c(Cl)cc2c1=O)[C@@H](C)O",
    "pIC50": 5.92
  },
  {
    "SMILES RECORD": "C[C@@H](O)[C@H](NCCF)C(=O)NC/C=C/Cn1cnc2cc(Cl)c(Cl)cc2c1=O",
    "pIC50": 5.60
  }
]

### Prompt Requested read-out: pIC50. Entry: CCN[C@H](C(=O)NC/C=C/Cn1cnc2cc(Cl)c(Cl)cc2c1=O)[C@@H](C)O
### Response 6.02

### Prompt Let us now turn to CN[C@H](C(=O)NC/C=C/Cn1cnc2cc(Cl)c(Cl)cc2c1=O)[C@@H](C)O
### Response 6.30

### Prompt Let us now turn to CC(C)N[C@H](C(=O)NC/C=C/Cn1cnc2cc(Cl)c(Cl)cc2c1=O)[C@@H](C)O
### Response 4.31
